Property: inhibition at 50 µM; scope: individual compounds
target: Rac1 activated by DH/PH domain of Guanine nucleotide Exchange Factor Tiam1 (Rac1/Tiam1) (Homo sapiens, UniProt P63000); construct: made in house; host or cells: E. coli BL21 Codon+RIL; test: Nucleotide binding assay: BODIPY-GTP binding to Rac1 activated by Tiam1 DH/PH; assay type: biochemical; conditions: final concentration of 50 μM; Rac1/Tiam1; read-out: Rac1 % inhibition of BODIPY-GTP binding
Where a name gives a salt, the structure may show the parent alone.
Use % as the unit, but write only the number.

Observe how each entry below is paired with its result.
Cc1c2cc(O)c(O)cc2cc2c3cc(O)c(O)cc3cc[n+]12	63
COc1cc2c(cc1OC)CN(Cc1cccc(OC)c1OC)CC2 [Compound 7, hydrochloride]	0
COc1cc2cc(-c3cccc(C(C)=O)c3)nc(C)c2cc1OC [Compound 24, hydrochloride]	18
COc1cc2cc(-c3ccccc3N)nc(C)c2cc1OC [Compound 37, dihydrochloride]	10
COc1cc2cc(-c3ccc(C(=O)OC(C)C)cc3)nc(C)c2cc1OC [Compound 32, hydrochloride]	4
COc1cc2cc(-c3ccc(O)c(O)c3)[n+](C)c(C)c2cc1OC	6

Dear colleague, I am looking for the recorded inhibition at 50 µM of the following compound: COc1cc2cc(-c3cccc(N(S(C)(=O)=O)S(C)(=O)=O)c3)nc(C)c2cc1OC [Compound 29, hydrochloride]
-5

Ok, now `COc1cc2cc(-c3ccccc3)nc(C)c2cc1OC`
10

Ok, now CCc1cc2c(cc1C1Cc3ccc(OC)c(OC)c3CN1C)OCO2 (racemic)
4

Ok, now `Cc1c2cc(O)c(O)cc2cc(-c2ccc(O)c(O)c2)[n+]1C`
22

Ok, now COc1cc2cc(-c3cccc(N)c3)nc(C)c2cc1OC [Compound 28, dihydrochloride]
13

---

System: Rac1b (Homo sapiens) | Read-out: pIC50
Remember the convention: pIC50 equals -log10 of concentration in molar.

C[n+]1cc2c3c(ccc2c2ccc4cc5c(cc4c21)OCO5)OCO3.O.[Cl-] [Compound 13, hydrate, reference compound]	5.34
COc1ccc2cc3[n+](cc2c1OC)CCc1cc(O)c(O)cc1-3	4.62

Turning now to a further compound:
Dear colleague, I am looking for the recorded pIC50 of the following compound: COc1ccc2c(c[n+](C)c3c4cc5c(cc4ccc23)OCO5)c1OC.[Cl-] [Compound 14, reference compound]
5.17

---

Target: Rac1 activated by DH/PH domain of Guanine nucleotide Exchange Factor Tiam1 (Rac1/Tiam1) (Homo sapiens)
Construct: made in house; host or cells: E. coli BL21 Codon+RIL
Experiment: Nucleotide binding assay: BODIPY-GTP binding to Rac1 activated by Tiam1 DH/PH
Type: biochemical
Conditions: final concentration of 50 μM; Rac1/Tiam1; read-out: Rac1 % inhibition of BODIPY-GTP binding
Procedure: Fluorescence of GTP analog BODIPY-GTP increases when it binds to small G proteins. This property was used to assess ability of compounds to inhibit nucleotide binding to Rac1, Rac1b and Cdc42. […] Fluorescence recording were started (λEx: 485 nm; λEm: 538 nm) using a spectrofluorimeter (Fluoroskan; Thermolab Systems). […] Fluorescence values were recorded, and data were processed as follows: background fluorescence (unbound BODIPY-GTP) was retrieved from fluorescence values. […]
Structures can show the parent of a compound that is named as a salt.
Kindly return 1 if reported inhibition at 50 µM is no lower than 10%; return 0 if it is lower.

COc1cc2c(cc1OC)CN(Cc1cccc(O)c1O)CC2	0
COc1cc2cc(-c3ccc4c(c3)OCO4)[n+](C)c(C)c2cc1OC	1
COc1cc2cc(-c3ccccc3)[n+](C)cc2cc1OC	0

Hi team, for COc1ccc2c(c1OC)C(Cc1ccccc1)N1CCc3cc4c(cc3C1C2)OCO4 (racemic) [Compound 12, hydrochloride] , is the recorded inhibition at 50 µM at or above 10%?
1

Ok, now COc1cc2cc(-c3ccccc3NC(=O)N(C)C)nc(C)c2cc1OC [Compound 46, hydrochloride]
0

---

test system: HCT116 cell line; experiment: Soft agar assay (anchorage-independent colony formation); format: cell-based; conditions: Homo sapiens, HCT-116, 168 h; HCT116, 7 days; read-out: Soft agar assay IC50, Clone Size
Counter-ions that a name gives are not always drawn.
Property: pIC50; scope: individual compounds
Remember the convention: pIC50 equals -log10 of concentration in molar.

Observe how each entry below is paired with its result.
C[n+]1cc2c3c(ccc2c2ccc4cc5c(cc4c21)OCO5)OCO3.O.[Cl-] [Compound 13, hydrate, reference compound]	5.82
COc1ccc2c(c[n+](C)c3c4cc(O)c(O)cc4ccc23)c1OC	4.94
COc1cc2cc(-c3ccc4ccccc4c3)nc(C)c2cc1OC.Cl	4.35

Turning now to a further compound:
Dear colleague, I am looking for the recorded pIC50 of the following compound: Oc1cc2c(cc1O)C1Cc3ccc(O)c(O)c3CN1CC2 (racemic) [Compound 16, hydrochloride]
5.21

---

Property: inhibition at 50 µM; scope: individual molecules
biological target: Rac1b (Homo sapiens, UniProt P63000); construct: GST (N); made in house; host or cells: E. coli BL21 Codon+RIL; assay: Nucleotide binding assay: BODIPY-GTP binding to Rac1b; type: biochemical; settings: read-out: Rac1b % inhibition of BODIPY-GTP binding
Structures can show the parent of a compound that is named as a salt.
Use % as the unit, but write only the number.

Dear colleague, I am looking for the recorded inhibition at 50 µM of the following molecule: C[n+]1cc2c3c(ccc2c2ccc4cc5c(cc4c21)OCO5)OCO3.O.[Cl-] [Compound 13, hydrate, reference compound]
100

Ok, now COc1ccc(Cc2nccc3cc(OC)c(OC)cc23)cc1OC [Compound 9, hydrochloride, reference compound]
5

---

biological target: Rac1 activated by DH/PH domain of Guanine nucleotide Exchange Factor Tiam1 (Rac1/Tiam1) (Homo sapiens); experiment: Nucleotide binding assay: BODIPY-GTP binding to Rac1 activated by Tiam1 DH/PH; conditions: dose-response study
Endpoint: IC50
Write your answer as a measured quantity: the number, then the unit.

C[n+]1cc2c3c(ccc2c2ccc4cc5c(cc4c21)OCO5)OCO3.O.[Cl-] [Compound 13, hydrate, reference compound]	57.8 µM

Turning now to a further molecule:
Dear colleague, I am looking for the recorded IC50 of the following molecule: COc1ccc2cc3[n+](cc2c1OC)CCc1cc(O)c(O)cc1-3 [Compound 4]
58.6 µM

---

molecular target: Rac1 activated by DH/PH domain of Guanine nucleotide Exchange Factor Tiam1 (Rac1/Tiam1) (Homo sapiens); construct: made in house; host or cells: E. coli BL21 Codon+RIL; experiment: Nucleotide binding assay: BODIPY-GTP binding to Rac1 activated by Tiam1 DH/PH; assay type: biochemical; settings: read-out: Rac1 % inhibition of BODIPY-GTP binding
Counter-ions that a name gives are not always drawn.
Property: inhibition at 50 µM; scope: individual molecules
Use % as the unit, but write only the number.

COc1ccc(Cc2nccc3cc(OC)c(OC)cc23)cc1OC [Compound 9, hydrochloride, reference compound]	1
COc1cc2c(cc1OC)-c1cc3ccc(OC)c(OC)c3c[n+]1CC2 [Compound 2, palmatine chloride, hydrate, reference compound]	15
COc1cc2cc3c4cc(OC)c(OC)cc4cc[n+]3c(C)c2cc1OC [Compound 8, hydrate, reference compound]	36

Turning now to a further molecule:
Dear colleague, I am looking for the recorded inhibition at 50 µM of the following molecule: C[n+]1cc2c3c(ccc2c2ccc4cc5c(cc4c21)OCO5)OCO3.O.[Cl-] [Compound 13, hydrate, reference compound]
45

---

system: HCT116 cell line; experiment: Soft agar assay (anchorage-independent colony formation); type: cell-based; conditions: Homo sapiens, HCT-116, 168 h; HCT116, 7 days; read-out: Soft agar assay IC50, Clone Size
Where a name gives a salt, the structure may show the parent alone.
Property: IC50; scope: individual molecules
Use µM as the unit, but write only the number.

Observe how each entry below is paired with its result.
COc1ccc2c(c[n+](C)c3c4cc5c(cc4ccc23)OCO5)c1OC.[Cl-] [Compound 14, reference compound]	2
COc1cc2cc(-c3ccc(O)c(O)c3)nc(C)c2cc1OC [Compound 26, hydrochloride]	8.5

Turning now to a further molecule:
Dear colleague, I am looking for the recorded IC50 of the following molecule: C[n+]1cc2c(O)c(O)ccc2c2ccc3cc(O)c(O)cc3c21 [Compound 52]
9.5

---

target: Cdc42 (Homo sapiens); construct: GST (N); made in house; host or cells: E. coli BL21 Codon+RIL; assay: Nucleotide binding assay: BODIPY-GTP binding to Cdc42; type: biochemical; settings: final concentration of 50 μM; read-out: Cdc42 % inhibition of BODIPY-GTP binding
Sequence (P60953 whole entry, species assumed): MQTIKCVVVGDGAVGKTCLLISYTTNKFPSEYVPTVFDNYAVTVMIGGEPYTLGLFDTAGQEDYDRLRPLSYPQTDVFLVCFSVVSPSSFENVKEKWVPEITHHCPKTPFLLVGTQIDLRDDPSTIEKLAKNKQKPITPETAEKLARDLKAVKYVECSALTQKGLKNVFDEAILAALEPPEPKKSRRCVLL
Structures can show the parent of a compound that is named as a salt.
Endpoint: inhibition at 50 µM (%)
Use % as the unit, but write only the number.

Observe how each entry below is paired with its result.
COc1cc2cc(-c3ccc(O)c(O)c3)[n+](C)c(C)c2cc1OC	5
COc1ccc2c(c1OC)C[N+]1(Cc3ccccc3)CCc3cc4c(cc3C1C2)OCO4 (racemic)	3
COc1ccc2c(c[n+](C)c3c4cc(O)c(O)cc4ccc23)c1OC	38

Turning now to a further compound:
Dear colleague, I am looking for the recorded inhibition at 50 µM of the following compound: COc1cc2cc(-c3cccc(C(C)=O)c3)nc(C)c2cc1OC [Compound 24, hydrochloride]
7
